Reference for the values: paper PMC10377566

test system: HT-1080 cells; test: Cell proliferation assay; type: cell-based; details: cell type selectivity (vs MCF-7), compared to FiVe1
Recorded measurements of improvement in selectivity, one per entry

Check out these entries, answers already filled in.
| compound | testTarget | endpointValue |
| --- | --- | --- |
| Oc1cc(Cl)cc(N2CCN(c3cnnc4c(Cl)cccc34)CC2)c1 [Compound 4g] | HT-1080 cells | > 10 fold |
| Nc1cc(Cl)cc(N2CCN(c3cnnc4c(Cl)cccc34)CC2)c1 [Compound 4i] | HT-1080 cells | ~ 2 fold |
| COc1cccc(N2CCN(c3cnnc4c(Cl)cccc34)CC2)c1 [Compound 4d] | HT-1080 cells | > 2 fold |

Now take the following compound into account.
Ask: Return improvement in selectivity for the following compound: COc1cc(OC)cc(N2CCN(c3cnnc4c(Cl)cccc34)CC2)c1 [Compound 4c]
Reply: > 15 fold

----------
SI (HT-1080 vs MCF-7) values by entry
system: HT-1080 cells; assay: Cell proliferation assay; format: cell-based; conditions: selectivity index, ratio of IC50 values HT-1080 and MCF-7

Known SI (HT-1080 vs MCF-7) results, listed for orientation:
| molecule | quantity | endpointValue |
| --- | --- | --- |
| COC(=O)CCOc1cc(Cl)cc(N2CCN(c3cnnc4c(Cl)cccc34)CC2)c1 [Compound 11j] | SI (HT-1080 vs MCF-7) | >20 |
| O=C(O)CCOc1cc(Cl)cc(N2CCN(c3cnnc4c(Cl)cccc34)CC2)c1 [Compound 11k] | SI (HT-1080 vs MCF-7) | >13 |
| COCCOc1cc(Cl)cc(N2CCN(c3cnnc4c(Cl)cccc34)CC2)c1 [Compound 11f] | SI (HT-1080 vs MCF-7) | >12 |
| NCCOc1cc(Cl)cc(N2CCN(c3cnnc4c(Cl)cccc34)CC2)c1 [Compound 11a] | SI (HT-1080 vs MCF-7) | >5 |
| OCCOc1cc(Cl)cc(N2CCN(c3cnnc4c(Cl)cccc34)CC2)c1 [Compound 11d] | SI (HT-1080 vs MCF-7) | >40 |

Let us examine a further case.
Ask: Recall and state the measured SI (HT-1080 vs MCF-7) for COC(COc1cc(Cl)cc(N2CCN(c3cnnc4c(Cl)cccc34)CC2)c1)OC [Compound 11g] .
Reply: >2
